Assay: collision cross section (N2, base ion); higher = larger ion cross section
reportedMetric: collision cross section (Å²)
Quick reminder: number only, in Å², skip the unit.

Examples with their reported collision cross section follow.
compound: Clc1ccc(C(c2ccc(Cl)cc2)C(Cl)(Cl)Cl)cc1 [4,4'-DDT] (APCI source condition: Dry, base ion: [M-CCl3]+)
collision cross section / Å²: 140.31
//
compound: Brc1ccc(Oc2ccc(Br)c(Br)c2Br)c(Br)c1 [PBDE 85] (APCI source condition: Dry, base ion: M+.)
collision cross section / Å²: 170.22
//
compound: Clc1c(Cl)c(Cl)c(-c2c(Cl)c(Cl)c(Cl)c(Cl)c2Cl)c(Cl)c1Cl [PCB 209] (APCI source condition: Dry, base ion: M+.)
collision cross section / Å²: 179.93
//
compound: Clc1ccc(C(c2ccccc2Cl)C(Cl)Cl)cc1 (stereo unspecified) [2,4'-DDD] (APCI source condition: Dry, base ion: [M-CHCl2]+)
collision cross section / Å²: 140.45
//
compound: c1cc2ccc3cccc4ccc(c1)c2c34 [Pyrene] (APCI source condition: Dry, base ion: M+.)
collision cross section / Å²: 137.65

Form field collision cross section, entry Clc1cccc(-c2cccc(Cl)c2Cl)c1Cl [PCB 40] (APCI source condition: Dry, base ion: M+.) : 144.96
